targetOrSystem: PI3Kα (Homo sapiens, UniProt P42336)
Sequence (P42336 whole entry): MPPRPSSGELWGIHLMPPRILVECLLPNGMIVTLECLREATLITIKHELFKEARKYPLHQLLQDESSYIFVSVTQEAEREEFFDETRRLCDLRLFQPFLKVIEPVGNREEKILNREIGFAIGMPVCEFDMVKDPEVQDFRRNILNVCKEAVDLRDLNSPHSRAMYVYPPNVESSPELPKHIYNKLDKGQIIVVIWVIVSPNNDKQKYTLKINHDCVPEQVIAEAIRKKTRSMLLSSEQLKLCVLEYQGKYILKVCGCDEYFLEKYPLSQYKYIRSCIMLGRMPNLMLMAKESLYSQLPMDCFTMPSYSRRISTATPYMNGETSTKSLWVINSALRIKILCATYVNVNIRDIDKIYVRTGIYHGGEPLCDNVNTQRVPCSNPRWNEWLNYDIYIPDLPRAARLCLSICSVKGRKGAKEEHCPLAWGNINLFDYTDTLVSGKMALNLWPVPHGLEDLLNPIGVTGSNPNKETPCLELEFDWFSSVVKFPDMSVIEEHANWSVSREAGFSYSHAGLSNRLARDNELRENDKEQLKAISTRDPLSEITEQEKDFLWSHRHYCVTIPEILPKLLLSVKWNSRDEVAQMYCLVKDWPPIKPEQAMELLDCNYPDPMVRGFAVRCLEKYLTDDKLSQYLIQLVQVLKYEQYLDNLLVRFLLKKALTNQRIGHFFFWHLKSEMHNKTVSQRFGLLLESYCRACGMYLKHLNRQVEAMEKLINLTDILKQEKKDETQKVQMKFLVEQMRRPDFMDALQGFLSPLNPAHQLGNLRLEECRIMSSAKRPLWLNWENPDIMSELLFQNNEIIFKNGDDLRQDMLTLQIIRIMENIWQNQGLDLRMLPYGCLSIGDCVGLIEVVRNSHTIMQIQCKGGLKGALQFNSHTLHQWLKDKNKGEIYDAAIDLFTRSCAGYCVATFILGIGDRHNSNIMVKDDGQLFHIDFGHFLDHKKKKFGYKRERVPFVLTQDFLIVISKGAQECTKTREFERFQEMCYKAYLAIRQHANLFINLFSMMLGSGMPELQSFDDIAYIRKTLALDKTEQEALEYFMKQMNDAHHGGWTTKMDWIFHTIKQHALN
Sequence (P27986 2-724 partner): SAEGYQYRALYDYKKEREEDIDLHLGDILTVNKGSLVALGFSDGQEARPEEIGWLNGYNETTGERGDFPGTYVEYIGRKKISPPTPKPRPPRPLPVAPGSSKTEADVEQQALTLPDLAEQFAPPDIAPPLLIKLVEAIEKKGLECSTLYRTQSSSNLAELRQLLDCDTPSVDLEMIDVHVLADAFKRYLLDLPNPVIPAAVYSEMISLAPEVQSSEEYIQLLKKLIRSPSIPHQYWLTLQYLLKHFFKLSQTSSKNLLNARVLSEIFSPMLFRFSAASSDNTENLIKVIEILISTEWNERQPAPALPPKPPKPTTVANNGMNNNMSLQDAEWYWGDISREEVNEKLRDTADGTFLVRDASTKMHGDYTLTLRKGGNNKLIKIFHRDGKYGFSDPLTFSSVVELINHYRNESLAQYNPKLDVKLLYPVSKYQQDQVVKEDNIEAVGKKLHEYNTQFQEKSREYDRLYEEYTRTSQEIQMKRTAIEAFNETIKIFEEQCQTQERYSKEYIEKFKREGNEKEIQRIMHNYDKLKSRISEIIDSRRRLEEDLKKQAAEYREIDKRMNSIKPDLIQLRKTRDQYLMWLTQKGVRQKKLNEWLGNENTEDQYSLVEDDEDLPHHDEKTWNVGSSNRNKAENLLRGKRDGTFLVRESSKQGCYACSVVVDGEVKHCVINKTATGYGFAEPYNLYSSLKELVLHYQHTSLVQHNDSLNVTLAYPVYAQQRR
observedProperty: IC50
Field note: include the unit after the figure.

PI3Kα (Homo sapiens, UniProt P42336) data for O=C(NOCCOCCOCCOCCN1CCN(c2nc(N3CCOCC3)nc(-n3c(C(F)F)nc4ccccc43)n2)CC1)c1ccc(F)c(F)c1Nc1ccc(I)cc1F ; its IC50: 0.191 µM
